Reported IC50 values follow for various compounds
- assaySystem: Akt1 (Homo sapiens)
- Sequence (P31749 whole entry, species assumed): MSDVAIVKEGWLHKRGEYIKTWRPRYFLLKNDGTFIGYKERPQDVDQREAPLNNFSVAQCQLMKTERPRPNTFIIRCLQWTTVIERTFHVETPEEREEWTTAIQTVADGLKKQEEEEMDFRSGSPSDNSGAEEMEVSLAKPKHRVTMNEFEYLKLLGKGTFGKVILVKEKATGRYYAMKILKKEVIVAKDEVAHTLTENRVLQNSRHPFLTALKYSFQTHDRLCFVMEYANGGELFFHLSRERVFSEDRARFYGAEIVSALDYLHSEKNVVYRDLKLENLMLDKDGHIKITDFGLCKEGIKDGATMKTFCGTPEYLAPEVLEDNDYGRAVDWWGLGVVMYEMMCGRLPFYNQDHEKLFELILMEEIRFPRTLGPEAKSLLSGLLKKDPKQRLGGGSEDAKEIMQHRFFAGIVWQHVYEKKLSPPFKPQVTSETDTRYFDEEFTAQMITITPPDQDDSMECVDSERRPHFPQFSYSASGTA

Example compounds with recorded IC50:
>>> print(df.to_string())
                                   compound  datavalue
0  CC(C)(C)OC(=O)N[C@H](COc1cncc(-c2cc3c(cnc4cc(Br)ccc43)c(N)n2)c1)Cc1ccccc1 [Ia-7]    > 20 µM
1  CCOc1cc2ncc3c(N)nc(-n4ccnc4)cc3c2cc1NC(C)=O [Ia-29]     > 5 µM

# input for lookup
Prompt line: What does the data say about its IC50? Entry: CC(C)(C)OC(=O)N[C@H](COc1cncc(-c2cc3c(cnc4cc(C#CCCn5ccnc5)ccc43)c(N)n2)c1)Cc1ccccc1 [Ia-6]
Response line: > 20 µM

Values from patent US20080293712A1
